# STUDY SYSTEM: human GLP-1 receptor (human, UniProt P43220 24-463); also: reference of the scale not given here
# EXPERIMENT SUMMARY: cell-based or functional assay

| BINDER | hGLP1R GTPgS % Top (%) |
| --- | --- |
| YXEGTFTSDYSIXLDKKAQXEFIEYLIEGGPSSGAPPPS (Aib2, αMeL13, K17 conjugated to (2-[2-(2-Amino-ethoxy)-ethoxy]-acetyl)2-(γ-Glu)-CO-(CH2)18-CO2H, Aib20, C-terminal amide (NH2)) [Example 333] | 83.4 |
| YXEGTFTSDYSIXLDEKAQXDFIEYLIAGGPSSGAPPPS (not fully specified; Aib2, αMeL13, K17 conjugated to (2-[2-(2-Amino-ethoxy)-ethoxy]-acetyl)2-(γ-Glu)-CO-(CH2)18-CO2H, Aib20, C-terminal amide (NH2)) [Example 344] | 85.8 |
| YXEGTFTSDYSIXLDEKAQXAFIXYLIAGGPSSGAPPPS (not fully specified; Aib2, αMeL13, K17 conjugated to (2-[2-(2-Amino-ethoxy)-ethoxy]-acetyl)2-(γ-Glu)-CO-(CH2)18-CO2H, Aib20, D-Glu24, C-terminal amide (NH2)) [Example 343] | 74.9 |
| YXEGTFTSDYSIXLDKKAQXAFIEYLIEGGPSSG (Aib2, αMeL13, K17 conjugated to (2-[2-(2-Amino-ethoxy)-ethoxy]-acetyl)2-(γ-Glu)-CO-(CH2)16-CO2H, Aib20, C-terminal amide (NH2)) [Example 300] | 85.6 |
| XXEGTFTSDYSIXLDKKAQXAFIEXLIAGGPSSGAPPPS (D-Tyr1, Aib2, αMeL13, K17 conjugated to (2-[2-(2-Amino-ethoxy)-ethoxy]-acetyl)-(γ-Glu)-CO-(CH2)18-CO2H, Aib20, αMeY25, C-terminal amide (NH2)) [Example 373] | 65.6 |
| XXEGTFTSDYSIXLDXKAQXEFIXYLIAGGPSSGAPPPS (D-Tyr1, Aib2, αMeL13, Orn16, K17 conjugated to (2-[2-(2-Amino-ethoxy)-ethoxy]-acetyl)2-(γ-Glu)-CO-(CH2)18-CO2H, Aib20, D-Glu24, C-terminal amide (NH2)) [Example 354] | 53.3 |
| XXEGTFTSDYSIXLDEKAQXAFIEXLIAGGPSSGAPPPS (D-Tyr1, Aib2, αMeL13, K17 conjugated to (2-[2-(2-Amino-ethoxy)-ethoxy]-acetyl)2-(γ-Glu)-CO-(CH2)18-CO2H, Aib20, αMeY25, C-terminal amide (NH2)) [Example 381] | 73.6 |
| YXEGTXTSDYSIXLDEKAQXEFIXYLIEGGPSSGAPPPS (Aib2, αMeF(2F)6, αMeL13, K17 conjugated to (2-[2-(2-Amino-ethoxy)-ethoxy]-acetyl)2-(γ-Glu)-CO-(CH2)18-CO2H, Aib20, D-Glu24, C-terminal amide (NH2)) [Example 1] | 91.1 |
| YXEGTFTSDYSIXLDKKAQXEFIEXLIAGGPSSGAPPPS (Aib2, αMeL13, K17 conjugated to (2-[2-(2-Amino-ethoxy)-ethoxy]-acetyl)2-(γ-Glu)-CO-(CH2)18-CO2H, Aib20, αMeY25, C-terminal amide (NH2)) [Example 367] | 89.7 |
| XXEGTFTSDYSIXLDXKAQXAFIEXLIAGGPSSGAPPPS (D-Tyr1, Aib2, αMeL13, Orn16, K17 conjugated to (2-[2-(2-Amino-ethoxy)-ethoxy]-acetyl)2-(γ-Glu)-CO-(CH2)16-CO2H, Aib20, αMeY25, C-terminal amide (NH2)) [Example 377] | 68.4 |
| YXEGTFTSDYSIXLDEKAQXEFIEYLIAGGPSSGAPPPS (Aib2, αMeL13, K17 conjugated to (2-[2-(2-Amino-ethoxy)-ethoxy]-acetyl)2-(γ-Glu)-CO-(CH2)18-CO2H, Aib20, C-terminal amide (NH2)) [Example 331] | 80.9 |
| YXEGTFTSDYSIXLDKKAQXEFIEYLIAGGPSSG (Aib2, αMeL13, K17 conjugated to (2-[2-(2-Amino-ethoxy)-ethoxy]-acetyl)2-(γ-Glu)-CO-(CH2)16-CO2H, Aib20, C-terminal amide (NH2)) [Example 306] | 76.1 |
| YXEGTXTSDYSILLDKKAQXAFIEYLIEGGPSSG (Aib2, αMeF6, K17 conjugated to (2-[2-(2-Amino-ethoxy)-ethoxy]-acetyl)2-(γ-Glu)-CO-(CH2)16-CO2H, Aib20, C-terminal amide (NH2)) [Example 301] | 91.4 |
| XXEGTFTSDYSIXLDKKAQXEFIEXLIEGGPSSGAPPPS (D-Tyr1, Aib2, αMeL13, K17 conjugated to (2-[2-(2-Amino-ethoxy)-ethoxy]-acetyl)2-(γ-Glu)-CO-(CH2)18-CO2H, Aib20, αMeY25, C-terminal amide (NH2)) [Example 379] | 71 |
| XXEGTFTSDYSIXLDEKAQXEFIEYLIAGGPSSGAPPPS (not fully specified; D-Tyr1, Aib2, αMeL13, K17 conjugated to (2-[2-(2-Amino-ethoxy)-ethoxy]-acetyl)2-(γ-Glu)-CO-(CH2)18-CO2H, Aib20, C-terminal amide (NH2)) [Example 342] | 77.2 |
| YXEGTFTSDYSIXLDKKAQXEFIEYLIAGGPSSGAPPPS (Aib2, αMeL13, K17 conjugated to (2-[2-(2-Amino-ethoxy)-ethoxy]-acetyl)2-(γ-Glu)-CO-(CH2)18-CO2H, Aib20, C-terminal amide (NH2)) [Example 289] | 83.7 |
| YXEGTXTSDYSIXLDXKAQXEFIXYLIEGGPSSGAPPPS (Aib2, αMeF(2F)6, αMeL13, Orn16, K17 conjugated to (2-[2-(2-Amino-ethoxy)-ethoxy]-acetyl)2-(γ-Glu)-CO-(CH2)16-CO2H, Aib20, D-Glu24, C-terminal amide (NH2)) [Example 2] | 95.9 |
| XXEGTFTSDYSIXLDKKAQXEFIEXLIAGGPSSGAPPPS (D-Tyr1, Aib2, αMeL13, K17 conjugated to (2-[2-(2-Amino-ethoxy)-ethoxy]-acetyl)-(γ-Glu)-CO-(CH2)18-CO2H, Aib20, αMeY25, C-terminal amide (NH2)) [Example 372] | 69.1 |
| YXEGTFTSDYSILLDKKAQXAFIEYLIEGGPSSGAPPPS (Aib2, K17 conjugated to (2-[2-(2-Amino-ethoxy)-ethoxy]-acetyl)2-(γ-Glu)-CO-(CH2)16-CO2H, Aib20, C-terminal amide (NH2)) [Example 315] | 44.2 |
| YXEGTFTSDYSIXLDEKAQXAFIEYLIEGGPSSGAPPPS (Aib2, αMeL13, K17 conjugated to (2-[2-(2-Amino-ethoxy)-ethoxy]-acetyl)2-(γ-Glu)-CO-(CH2)16-CO2H, Aib20, C-terminal amide (NH2)) [Example 323] | 81.9 |
| YXEGTXTSDYSILLDKKAQXAFIEYLIEGGPSSGAPPPS (Aib2, αMeF(2F)6, K17 conjugated to (2-[2-(2-Amino-ethoxy)-ethoxy]-acetyl)2-(γ-Glu)-CO-(CH2)18-CO2H, Aib20, C-terminal amide (NH2)) [Example 325] | 97.9 |
| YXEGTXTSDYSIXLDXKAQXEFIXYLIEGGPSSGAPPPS (Aib2, αMeF(2F)6, αMeL13, Orn16, K17 conjugated to (2-[2-(2-Amino-ethoxy)-ethoxy]-acetyl)2-(γ-Glu)-CO-(CH2)18-CO2H, Aib20, D-Glu24, C-terminal amide (NH2)) [Example 3] | 95.4 |
| XXEGTFTSDYSIXLDEKAQXAFIEYLIAGGPSSGAPPPS (not fully specified; D-Tyr1, Aib2, αMeL13, K17 conjugated to (2-[2-(2-Amino-ethoxy)-ethoxy]-acetyl)2-(γ-Glu)-CO-(CH2)18-CO2H, Aib20, C-terminal amide (NH2)) [Example 341] | 78.9 |
| XXEGTFTSDYSIXLDKKAQXAFIXYLIAGGPSSGAPPPS (D-Tyr1, Aib2, αMeL13, K17 conjugated to (2-[2-(2-Amino-ethoxy)-ethoxy]-acetyl)2-(γ-Glu)-CO-(CH2)18-CO2H, Aib20, D-Glu24, C-terminal amide (NH2)) [Example 352] | 63.5 |
| XXEGTFTSDYSIXLDKKAQXEFIXYLIEGGPSSGAPPPS (D-Tyr1, Aib2, αMeL13, K17 conjugated to (2-[2-(2-Amino-ethoxy)-ethoxy]-acetyl)2-(γ-Glu)-CO-(CH2)18-CO2H, Aib20, D-Glu24, C-terminal amide (NH2)) [Example 353] | 63.1 |
